# CONDITION_LABEL: 298.15 K; 101.33 kPa; Liquid; Pycnometric method
Below is a list of entries, each paired with its recorded mass density value.
TEST_READOUT: mass density (kg/m3)

> print(dat)
   mol.smiles  observed.result
1      CCCCCO            811.4
2        CCCO            799.7
3     CCCCCCO            815.7
4       CCCCO              806
5         CCO            785.3
6    CCCCCCCO            819.2
7          CO            786.6
8   CCCCCCCCO            821.6

Taken from the NIST ThermoML archive (doi:10.1021/acs.jced.5b00882).
